Consider the following compounds and their measured solubility kinetic readings.
- protocolConditions: buffer; pH 7.4; 200.0 µM

// worked examples, solubility kinetic included
In [3]: df
Out[3]:
                            substancesmiles         readoutname  readoutvalue
0          Cc1cccc(NC(=O)Nc2cccc3ccccc23)c1  solubility kinetic   < 0.3 µg/mL
1           Cc1ccc(S(=O)(=O)NC2CCCCCCC2)cc1  solubility kinetic    24.3 µg/mL
2         COc1ccc(-c2nnc(SCC(=O)O)n2C)cc1OC  solubility kinetic  > 46.4 µg/mL
3  COc1ccc(CN(C)C(=O)c2ccc3c(=O)n4c(nc3c2)CCC4)cc1  solubility kinetic  > 54.5 µg/mL
4  O=C(COc1ccc(S(=O)(=O)N2CCOCC2)cc1)Nc1ccc(Br)cc1  solubility kinetic     5.4 µg/mL

Req: What value of measured solubility kinetic is listed for Cc1cc(=O)c2cc(NC(=O)c3ccccc3Cl)ccc2[nH]1 ?
Resp: 9.4 µg/mL

Req: Given CSCC[C@H](NC(=O)Nc1ccc(OC(F)(F)F)cc1)C(=O)O , state its recorded solubility kinetic.
Resp: > 52.8 µg/mL

Req: Which solubility kinetic is listed for COc1cccc(C(=O)N2CCN(C(=O)C3CC3)CC2)c1 ?
Resp: 40.7 µg/mL

Req: Could you share which solubility kinetic value was measured for c1cc2c(cc1CN1CCNCC1)OCO2 ?
Resp: 31.8 µg/mL

Req: Item under review: Cc1cccc(N(C)S(=O)(=O)c2ccc3c(c2)NC(=O)CC(=O)N3)c1 . Reported solubility kinetic?
Resp: > 53.9 µg/mL

Req: Fill in the blank: the reported solubility kinetic of COC(=O)c1ccc(NC(=O)c2cc[n+](Cc3ccccc3)cc2)cc1.[Cl-] is ____.
Resp: 50.7 µg/mL

Req: State the recorded solubility kinetic for this entry: O=[N+]([O-])c1ccc(CNc2ccc(Cl)cc2)s1
Resp: 6.5 µg/mL

Req: Quick one: solubility kinetic of Cc1cc(NC(=O)c2ccc(C)c(C)c2)no1 ?
Resp: 3.6 µg/mL

Req: I'd like to know its solubility kinetic. The compound in question is COc1ccc(N/C=C2\CCc3ccccc3C2=O)cc1
Resp: 2 µg/mL

Req: What does the data say about its solubility kinetic? Entry: CN(CCN1CCOCC1)Cc1nc(-c2ccc(Cl)cc2)no1
Resp: 38.1 µg/mL

Req: Look at this compound and give its reported solubility kinetic. Cc1ccc(NC(=O)N2CCc3ccccc3C2)cc1C
Resp: 0.9 µg/mL

Req: Entry under review: CCC(=O)Nc1ccc2c(c1)Cc1cc(NC(=O)CC)ccc1-2 . Reported solubility kinetic?
Resp: 0.5 µg/mL

Req: Please report the recorded solubility kinetic for Cc1ccc(CCC(=O)Nc2ccc(N(C)C)cc2)o1 .
Resp: 17.5 µg/mL

Req: Entry O=C1CCCN1CCCNS(=O)(=O)c1ccccc1 has what solubility kinetic?
Resp: > 42.4 µg/mL

Req: May I ask what solubility kinetic has been recorded for CN1CCN(c2nc(-c3cccc([N+](=O)[O-])c3)nc3ccccc23)CC1 ?
Resp: 8.5 µg/mL

Req: // query solubility kinetic value for entry Cc1cccc(C)c1NC(=O)c1cccnc1
Resp: 33.1 µg/mL

---

Entries and their measured solubility kinetic follow.
- protocolConditions: buffer; pH 7.4; 200.0 µM
Hi! Could you send only the number? It should be in µg/mL, unit omitted.

Examples from the recorded data:
In [3]: df
Out[3]:
                                   molecule  readoutvalue
0            Brc1ccc(CN2CCN(c3ccccc3)CC2)o1          22.5
1      Cc1ccc(NC(=O)CO/N=C/c2ccccc2C)c(C)c1           8.7
2  COc1ccc2c(c1)-c1nc(/N=C/c3c(O)ccc4ccccc34)sc1CC2          27.1

Req: What does the record list as solubility kinetic for COc1ccc(C)cc1NC(=O)CSCc1ccccc1C ?
Resp: 8.6

Req: Looking for the measured solubility kinetic of CC1SC(C)C(=O)N(CC(=O)Nc2ccc([N+](=O)[O-])cc2)C1=O (centres undefined) , can you help?
Resp: 45.7

Req: Name the recorded solubility kinetic for CCOC(=O)/C=C/C(=O)Nc1ccc(Oc2ccccc2)cc1 .
Resp: 3.8

Req: Using the record for Nc1ccccc1C#Cc1ccc([N+](=O)[O-])cc1 , report its solubility kinetic.
Resp: 1.1

Req: Quick one: solubility kinetic of Cc1cccc(N2CCN(C(=O)N3CCCCC3)CC2)c1C ?
Resp: 26.3

Req: # get_value(readout='solubility kinetic', item= CC(C)C1(CCNC(=O)c2cccs2)CCOC(C)(C)C1 (centres undefined) )
Resp: 42

Req: Any idea what its solubility kinetic is? The molecule is COc1ccc(NC(=O)c2c(N)no[n+]2[O-])cc1
Resp: 3

Req: Reported solubility kinetic, molecule CC(=O)Oc1ccc(C(=O)NCCc2ccccc2)cc1 : ____
Resp: 21.5

Req: // lookup solubility kinetic for CCCNC(=O)N1c2ccccc2Sc2ccccc21
Resp: 33.6

Req: What value of solubility kinetic has been reported for the following molecule? COc1ccc(NS(=O)(=O)c2cc(NC(=O)c3cc(F)c(F)cc3Cl)ccc2N2CCOCC2)cc1
Resp: 3.7
